Tested on: MCF7
Test: Ratio of IC50 for HEK293 cells to IC50 for human MCF7 cells
Would you mind labelling by Ratio IC50? At or over 0.8 is criterion met, under is criterion not met.

Please review the following examples before continuing.
COc1cccc(/C=C/c2cncnc2)c1 :: criterion not met
Oc1ccccc1/C=C/c1ccncc1 :: criterion not met

Ask | Form field: Ratio IC50 at least 0.8? Entry: COc1ccccc1/C=C/c1ccncc1
Reply | criterion met

Ask | Item Nc1ccccc1/C=C/c1ccncc1 with Ratio IC50 of 0.8 or above?
Reply | criterion not met

Ask | Test whether the compound COc1cccc(/C=C/c2ccccn2)c1 records Ratio IC50 of 0.8 or higher.
Reply | criterion not met

Ask | Given COc1ccc(/C=C/c2cncnc2)cc1 , state whether its Ratio IC50 is at least 0.8.
Reply | criterion not met

Ask | Quick check: does COc1ccccc1/C=C/c1cncnc1 have Ratio IC50 greater than or equal to 0.8?
Reply | criterion not met

Ask | Tell me whether Ratio IC50 is at least 0.8 here: COc1ccc(/C=C/c2cccnc2)cc1
Reply | criterion met

Ask | Ratio IC50 >= 0.8 for Nc1cccc(/C=C/c2ccncc2)c1 ?
Reply | criterion met

Ask | Has Oc1cccc(/C=C/c2ccncc2)c1 a recorded Ratio IC50 greater than or equal to 0.8?
Reply | criterion not met

Ask | Dear colleague, could you confirm whether COc1ccccc1/C=C/c1cccnc1 has Ratio IC50 at or above 0.8?
Reply | criterion not met

Ask | Check this compound for Ratio IC50 at or above 0.8: COc1ccc(/C=C/c2ncccn2)cc1
Reply | criterion not met

Ask | Item COc1ccccc1/C=C/c1ncccn1 with Ratio IC50 of 0.8 or above?
Reply | criterion not met

====

Recorded Activity, one value per entry.
System: HT-29
Assay: Inhibition of c-Myc gene expression in human HT-29 cells assessed as c-Myc mRNA level at 10 ug/ml after 48 hrs by RT-qPCR method
Format: functional
Design: scale not given: the % may be the effect or the level left

Consider the worked cases shown below.
COc1ccc(/C=C/c2ccccn2)cc1 :: 87%
COc1ccccc1/C=C/c1ccncc1 :: 64%

Now look at this entry.
Looking up COc1ccc(/C=C/c2ccncc2)cc1 , I found its Activity recorded as 63%

====

Tested on: MCF7
Test: Ratio of IC50 for HEK293 cells to IC50 for human MCF7 cells
measure_name: Ratio IC50
Quick one: just the number, no unit, thanks!

Oc1ccc(/C=C/c2cc(O)cc(O)c2)cc1 [RESVERATROL] :: 0.4
COc1ccc(/C=C/c2ccccn2)cc1 :: 1.3

# ---- query compound ----
Let me check: COc1cccc(/C=C/c2cccnc2)c1 , system MCF7, measured Ratio IC50 is 0.9
